Where do these numbers come from? They come from paper PMC11648822.

Listed compounds paired with reported microsomal CLint
measurement-description: Human liver microsome stability
Format: in vitro ADME
test-context: human liver microsomes; read-out: HLM CLint
Text: Human liver microsome stability, rat hepatocyte stability, aqueous solubility and eLogD are platform assays conducted by TCG Lifesciences and undertaken using previously described protocols.[10]
Give a bare numeral; the unit µL/min/mg is implied.

> print(dat)
                                   compound      measure.name  units.of.measure  recorded.result
1  COc1ccc2c(c1)NC(C)(C(=O)Nc1cncc(Cl)c1)N(C)C2=O (stereo not shown)  microsomal CLint         µL/min/mg               35
2  CN1C(=O)c2ccc(Cl)cc2N(C)C1(C)C(=O)Nc1cccc(Cl)c1 (stereo not shown)  microsomal CLint         µL/min/mg              122
3  CC1(C(=O)Nc2cncc(Cl)c2)Nc2cc(Cl)ccc2C(=O)N1C1CC1 (stereo not shown)  microsomal CLint         µL/min/mg              172

Now turn to the next compound.
q: Determine from records and report microsomal CLint for CC1(C(=O)Nc2cncc(Cl)c2)Nc2cc(Cl)ccc2C2=NCCN21 (stereo not shown)
a: 37

###

Listed compounds paired with reported eLogD
measurement-description: eLogD shake-flask method
Format: physicochemical
Marks after values point to notes of the source that are not given here.

> print(dat)
                                   compound  recorded.result
1  CN1c2cc(Cl)ccc2C(=O)N(C2CC2)C1(C)C(=O)Nc1cncc(Cl)c1 (stereo not shown) [Compound 17]          3.2^[d]
2  CN1C(=O)c2ccc(Cl)cc2N(C)C1(C)C(=O)Nc1cccc(Cl)c1 (stereo not shown) [Compound 12]          3.9^[d]
3  COc1cc(F)c2c(c1)NC(C)(C(=O)Nc1cncc(Cl)c1)N(C)C2=O (stereo not shown) [Compound 36]          2.6^[d]

q: Determine from records and report eLogD for CN1C(=O)c2ccc(Cl)cc2NC1(C)C(=O)Nc1cncc(Cl)c1 (stereo not shown) [Compound 14]
a: 3.2^[d]

q: Determine from records and report eLogD for CN1C(=O)c2ccc(-n3cccn3)cc2NC1(C)C(=O)Nc1cncc(Cl)c1 (stereo not shown) [Compound 33]
a: 3.2^[d]

q: Determine from records and report eLogD for CC1(C(=O)Nc2cncc(Cl)c2)Nc2cc(Cl)ccc2C(=O)N1C1CC1 (stereo not shown) [Compound 16]
a: 3.3^[d]

q: Determine from records and report eLogD for CN1C(=O)c2ccc(-c3cnn(C)c3)cc2NC1(C)C(=O)Nc1cncc(Cl)c1 (stereo not shown) [Compound 32]
a: 2.9^[d]

###

Test system: P. falciparum (Pf) 3D7 parasites
measurement-description: P. falciparum LDH viability assay
Format: cell-based
test-context: Plasmodium falciparum, 3D7, 72 h, LDH activity at 72 h; mean and SD of 3 independent experiments
Text: This assay is a platform assay conducted at the Walter and Eliza Hall Institute and uses a protocol previously decsribed.[30, 31]
Listed molecules paired with reported pEC50
Scale explanation: pEC50 corresponds to minus log10 of a concentration expressed in moles per litre.

Take a look at these entries with their results.
> print(dat)
                                   molecule  measure.name  recorded.result
1  CC1(C(=O)Nc2cncc(Cl)c2)Nc2cc(Cl)ccc2-c2nccn21 (stereo not shown) [Compound 27]         pEC50             7.27
2  COc1cnc2c(c1)NC(C)(C(=O)Nc1cncc(Cl)c1)N(C)C2=O (stereo not shown) [Compound 35]         pEC50             6.34

q: Determine from records and report pEC50 for CN1C(=O)c2ccc(-n3cccn3)cc2NC1(C)C(=O)Nc1cncc(Cl)c1 (stereo not shown) [Compound 33]
a: 7.19

q: Determine from records and report pEC50 for CN1C(=O)c2ccc(-c3ccn(C)n3)cc2NC1(C)C(=O)Nc1cncc(Cl)c1 (stereo not shown) [Compound 31]
a: 6.09
